The measured values listed here are drawn from the supplement of paper PMC10266784.

B1: library; numbered along this chain (parent)
chain: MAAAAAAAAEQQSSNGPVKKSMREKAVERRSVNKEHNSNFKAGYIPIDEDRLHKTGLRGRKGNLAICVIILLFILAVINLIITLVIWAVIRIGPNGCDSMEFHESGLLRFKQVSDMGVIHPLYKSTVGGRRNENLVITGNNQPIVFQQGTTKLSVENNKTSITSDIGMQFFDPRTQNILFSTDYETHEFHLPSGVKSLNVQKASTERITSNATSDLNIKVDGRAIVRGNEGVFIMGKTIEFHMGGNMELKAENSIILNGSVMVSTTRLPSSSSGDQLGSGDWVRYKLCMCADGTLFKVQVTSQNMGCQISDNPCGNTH

- Variants of: B1
- procedureDetails: SGCB cell-surface expression functional score (HA stain, bin4 vs bin1, normalised to synonymous) (log10 ratio); higher = more cell-surface SGCB (functional)
Decision: SGCB cell-surface expression functional score (log10) compared against -0.4; not below it gives y, below it gives n.

input: Record R60D ; criterion: SGCB cell-surface expression functional score (log10) no lower than -0.4. Met?
output: y

input: Item V145Y with SGCB cell-surface expression functional score (log10) of -0.4 or above?
output: n

input: Identify whether the reported SGCB cell-surface expression functional score (log10) of the following variant is -0.4 or greater: R131D
output: y

input: Kindly determine if SGCB cell-surface expression functional score (log10) recorded for T55K is above or exactly -0.4.
output: y

input: Check the entry A251N : does SGCB cell-surface expression functional score (log10) equal or exceed -0.4?
output: y

input: Hi team, for Q303N , is the recorded SGCB cell-surface expression functional score (log10) at or above -0.4?
output: n

input: Quick check: does Q142F have SGCB cell-surface expression functional score (log10) greater than or equal to -0.4?
output: y

input: Hi team, for M100W , is the recorded SGCB cell-surface expression functional score (log10) at or above -0.4?
output: n

input: API: above_or_equal(metric=SGCB cell-surface expression functional score (log10), cutoff=-0.4) for item V232N
output: n

input: Could you verify whether the entry M168F shows SGCB cell-surface expression functional score (log10) of no less than -0.4?
output: n

input: Decide: is the reported value of SGCB cell-surface expression functional score (log10) for V85N equal to or greater than -0.4?
output: y

input: Threshold query (SGCB cell-surface expression functional score (log10) >= -0.4) on A3E
output: y

input: For this variant, is measured SGCB cell-surface expression functional score (log10) -0.4 or higher? E206L
output: y

input: Determine whether this variant has SGCB cell-surface expression functional score (log10) no lower than -0.4: E230R
output: y

input: Hi team, for T265I , is the recorded SGCB cell-surface expression functional score (log10) at or above -0.4?
output: y

input: Check this variant for SGCB cell-surface expression functional score (log10) at or above -0.4: A5C
output: y

input: Is it the case that I90F has SGCB cell-surface expression functional score (log10) reaching or exceeding -0.4?
output: n

input: Hi, just wondering whether S302T shows SGCB cell-surface expression functional score (log10) of -0.4 or higher.
output: n

input: Assess whether reported SGCB cell-surface expression functional score (log10) for I69V sits at -0.4 or higher.
output: y

input: hey, is SGCB cell-surface expression functional score (log10) for this one >= -0.4? S197A
output: n

input: Item K286Y with SGCB cell-surface expression functional score (log10) of -0.4 or above?
output: y

input: For this variant, is measured SGCB cell-surface expression functional score (log10) -0.4 or higher? S181W
output: n
